The values you see were collected from patent US20250011363A1.

Parameter Binding affinity (RU): see the listing below.
target: acetylcholine receptor; assay: SPR, AchR immobilized on CM5 chip, peptide at 10 µM
Kindly answer with a numeric value in RU, unit omitted.

RSVYK [5mer-117]    69
KRVTR [5mer-439]    65
KGFSK [5mer-124]    58
RLFTR [5mer-445]    77
KWRTK [5mer-430]    80

Enquiry: Need Binding affinity (RU) of KVRLR [5mer-442] , thanks.
Return: 61

Enquiry: Continue with KRRLK [5mer-110]
Return: 76

Enquiry: Continue with KSLLK [5mer-129]
Return: 63

Enquiry: Continue with RWLTR [5mer-413]
Return: 56
